Assign Enhancement to each entry below.
Procedure details: Magnitude of colour change (light absorbance) dry vs damp for colour-formers dip-coated on MDI and TDI HPU foam (Example 25)
Stated conditions: MDI HPU foam; light absorbance damp versus dry
Just the number, please, no unit after it.

Consider the molecule CCN(CC)c1ccc2c(c1)Oc1ccc(N(Cc3ccccc3)Cc3ccccc3)cc1C21OC(=O)c2ccccc21 (stereo not drawn) . State its measured Enhancement.
5.7

Consider the molecule CCN(CCC(C)C)c1ccc2c(c1)Oc1cc(C)c(Nc3ccccc3)cc1C21OC(=O)c2ccccc21 (stereo not drawn) . State its measured Enhancement.
6.3

Consider the molecule CN(C)c1ccc(C2(c3ccc(N(C)C)cc3)OC(=O)c3cc(N(C)C)ccc32)cc1 . State its measured Enhancement.
13.4
